Source of measurements: patent US9745328B2

# System: leukotriene pathway in human whole blood (LTB4)
# METHOD: Human whole blood assay (LTB4 levels after calcium ionophore A23187 stimulation)
# Format: cell-based
# RECORDED CONDITIONS: Homo sapiens, human whole blood diluted 1:1, A23187 stimulation; Table 6 (additional runs); read-out: Human Whole Blood LTB4 IC50 1:1
Where a name gives a salt, the structure may show the parent alone.
MEASUREMENT LABEL: pIC50
Conceptually, pIC50 converts a concentration in mol/L into minus its log10.

Input Nc1ncc(-c2ncc(-c3ccccc3S(=O)(=O)NCCO)cc2F)cn1 . Output pIC50: 7.16

Input Nc1cnc(-c2ccc(-c3cccnc3S(=O)(=O)C3CCN(CCO)CC3)cc2F)cn1 . Output pIC50: 6.98

Input CC(C)S(=O)(=O)c1ncccc1-c1ccc(-c2cnc(N)cn2)c(F)c1 . Output pIC50: 7.57

Input CS(=O)(=O)N1CCC(S(=O)(=O)c2ncccc2-c2ccc(-c3cnc(N)cn3)c(F)c2)CC1 . Output pIC50: 7.36

Input Nc1cnc(-c2ccc(-c3cccnc3Oc3cccnc3)cc2F)cn1 . Output pIC50: 6.33

Input Nc1cnc(-c2ccc(-c3ccc(C(F)(F)F)cc3N)cc2F)cn1 . Output pIC50: 6.14

Input COCCn1cc(-c2ccccc2-c2ccc(-c3cnc(N)cn3)c(F)c2)cn1 . Output pIC50: 6.07

Input C[C@@H](CO)NS(=O)(=O)c1ccccc1-c1cnc(-c2cnc(N)nc2)c(F)c1 . Output pIC50: 6.75

Input Nc1cnc(-c2ccc(-c3ccc(C(F)(F)F)nc3S(=O)(=O)C3CCS(=O)(=O)CC3)cc2F)cn1 . Output pIC50: 8.06

Input CNc1ncc(-c2ccccc2-c2ccc(-c3cnc(N)nc3)c(F)c2)cn1 . Output pIC50: 6.27

Input Nc1cnc(-c2ccc(-c3ccccc3OC(F)(F)F)cc2F)cn1 . Output pIC50: 5.38

Input Nc1cnc(-c2ccc(-c3cccnc3-c3ccccc3)cc2F)cn1 . Output pIC50: 6.22

Input C[C@H](NS(=O)(=O)c1ccccc1-c1cnc(-c2cnc(N)nc2)c(F)c1)C(F)(F)F [Example 877, hydrochloride salt] . Output pIC50: 7.98

Input CC(C)(C)NS(=O)(=O)c1ccccc1-c1ccc(-c2cnc(N)c(N)n2)c(F)c1 . Output pIC50: 8.36

Input Nc1cnc(-c2ccc(-c3ccccc3-c3cnn(CCO)c3)cc2F)cn1 . Output pIC50: 6.45

Input Nc1cnc(-c2ccc(-c3cccnc3Oc3ccccc3)cc2F)cn1 . Output pIC50: 6.85

Input C[C@@H](NS(=O)(=O)c1ccccc1-c1cnc(-c2cnc(N)nc2)c(F)c1)C(F)(F)F . Output pIC50: 7.16

###

# EXPERIMENTAL TARGET: human FLAP (Homo sapiens (Human), UniProt P20292)
# Sequence (P20292 whole entry): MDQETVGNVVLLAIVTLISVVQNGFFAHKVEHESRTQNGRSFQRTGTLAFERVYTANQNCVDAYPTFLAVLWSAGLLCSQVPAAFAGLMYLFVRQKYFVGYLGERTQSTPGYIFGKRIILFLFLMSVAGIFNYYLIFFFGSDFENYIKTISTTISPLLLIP
# METHOD: FLAP binding assay (HTRF format)
# RECORDED CONDITIONS: human FLAP wild type, Table 6 (additional runs)
MEASUREMENT LABEL: Ki (nM)
Express your answer in nM, writing the number without its unit.

Input Nc1cnc(-c2ccc(-c3cccnc3S(=O)(=O)c3ccccc3)cc2F)cn1 . Output Ki: 7

Input COc1cnc(Oc2ccccc2-c2ccc(-c3cnc(N)nc3)c(F)c2)nc1 . Output Ki: 1.7

Input CC(C)(C)NS(=O)(=O)c1ccccc1-c1ccc(-c2ccc(N)cn2)c(F)c1 . Output Ki: 43.9

Input Cc1nc(-c2ccc(-c3ccccc3S(=O)(=O)NC(C)(C)C)cc2F)cnc1N . Output Ki: 0.5

Input Nc1cnc(-c2ccc(-c3ccccc3O[C@H]3CC[C@H](N)CC3)cc2F)cn1 . Output Ki: 31.5

Input N#Cc1cccnc1COc1ccccc1-c1ccc(-c2cnc(N)cn2)c(F)c1 . Output Ki: 8.5

Input Nc1cnc(-c2ccc(-c3ccc(C(F)(F)F)cc3Oc3ncccn3)cc2F)cn1 . Output Ki: 0.4

Input N#CCn1cc(-c2ccccc2-c2ccc(-c3cnc(N)cn3)c(F)c2)cn1 . Output Ki: 25
